- Tested on: NCI-H1048 cells
- protocol: MTT proliferation assay, NCI-H1048;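 further: Dose-response in 96-well plates over 8 or 10 concentration points, with exposure spanning 3-4 cell doublings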
- Type: cell-based
- runParameters: 5 days compound exposure, 1:3 serial dilution starting at 10 μM
*1 amine or outer side, *2 acyl side, *3 side chain or, on linkers, in order; H or OH if unused. Where a SMILES comes first, the peptide text is derived from it. Bridges are numbered along the chain shown (N, C = ends). [ ]: non-standard residue; d: D form. The star is where a group is joined. X95 = CN1CCCC[C@H]1c1ccc(-c2ccc(Cl)cc2C[C@@H](C(=O)[*:2])N(C)[*:1])cc1; X137 = CN([C@@H](Cc1cc(F)ccc1-c1cnn(S(C)(=O)=O)c1)C(=O)[*:2])[*:1]; NMehhhLys(Me) = CN([C@@H](CCCCCCCN(C)[*:3])C(=O)[*:2])[*:1]; X22 = CN([C@@H](Cc1cc(Cl)ccc1-c1cnn(C)c1)C(=O)[*:2])[*:1]; X104 = CN([C@@H](Cc1cc(Cl)ccc1C1=CCOCC1)C(=O)[*:2])[*:1]; X66 = CN([C@@H](Cc1cc(Cl)ccc1-c1cccnc1)C(=O)[*:2])[*:1]; NMe(hhhLys) = CN([C@@H](CCCCCCCN[*:3])C(=O)[*:2])[*:1]; Oxane2carbonyl(2R-CF3) = O=C([C@@]1(C(F)(F)F)CCCCO1)*; cBuCO(3,3-F2-1-CF3) = O=C(C1(C(F)(F)F)CC(F)(F)C1)*; Pro(trans-4-F) = O=C(O)[C@@H]1C[C@@H](F)CN1; Gly(cPr) = N[C@H](C(=O)O)C1CC1
Below, each entry is listed with its recorded GI50.

[
  {
    "compound": "CC(C)C[C@@H]1NC(=O)[C@@H](N(C)C(=O)[C@@H](NC(=O)[C@@H]2C[C@@H](F)CN2C(=O)C2(C(F)(F)F)CC(F)(F)C2)C2CC2)CCCCCCCNC(=O)[C@H](Cc2cc(Cl)ccc2-c2cccnc2)N(C)C1=O [Example 276] ({cBuCO(3,3-F2-1-CF3)}-[Pro(trans-4-F)][Gly(cPr)][NMe(hhhLys)]L[X66]; lactam 3-C)",
    "targetOrSystem": "NCI-H1048 cells",
    "measureUnit": "nM",
    "GI50": 20
  },
  {
    "compound": "COCCn1cc(-c2ccc(Cl)cc2C[C@H]2C(=O)N(C)CCCCC=CC[C@H](N(C)C(=O)[C@@H](NC(=O)[C@@H]3C[C@@H](F)CN3C(=O)C3(C(F)(F)F)CC(F)(F)C3)C3CC3)C(=O)N[C@@H](CC(C)C)C(=O)N2C)cn1 [Example 44]",
    "targetOrSystem": "NCI-H1048 cells",
    "measureUnit": "nM",
    "GI50": 20
  },
  {
    "compound": "CC(C)C[C@@H]1NC(=O)[C@@H](N(C)C(=O)[C@@H](NC(=O)[C@@H]2C[C@@H](F)CN2C(=O)[C@@]2(C(F)(F)F)CCCCO2)C2CC2)CCCCCCCN(C)C(=O)[C@H](Cc2cc(Cl)ccc2-c2cnn(C)c2)N(C)C1=O [Example 184] ({Oxane2carbonyl(2R-CF3)}-[Pro(trans-4-F)][Gly(cPr)][NMehhhLys(Me)]L[X22]; lactam 3-C)",
    "targetOrSystem": "NCI-H1048 cells",
    "measureUnit": "nM",
    "GI50": 10
  },
  {
    "compound": "CC(C)C[C@@H]1NC(=O)[C@@H](N(C)C(=O)[C@@H](NC(=O)[C@@H]2C[C@@H](F)CN2C(=O)C2(C(F)(F)F)CC(F)(F)C2)C2CC2)CCCCCCCN(C)C(=O)[C@H](Cc2cc(Cl)ccc2-c2ccc([C@@H]3CCCCN3C)cc2)N(C)C1=O [Example 417] ({cBuCO(3,3-F2-1-CF3)}-[Pro(trans-4-F)][Gly(cPr)][NMehhhLys(Me)]L[X95]; lactam 3-C)",
    "targetOrSystem": "NCI-H1048 cells",
    "measureUnit": "nM",
    "GI50": 10
  },
  {
    "compound": "CC(C)C[C@@H]1NC(=O)[C@@H](N(C)C(=O)[C@@H](NC(=O)[C@@H]2C[C@@H](F)CN2C(=O)[C@@]2(C(F)(F)F)CCCCO2)C2CC2)CCCCCCCN(C)C(=O)[C@H](Cc2cc(F)ccc2-c2cnn(S(C)(=O)=O)c2)N(C)C1=O [Example 303] ({Oxane2carbonyl(2R-CF3)}-[Pro(trans-4-F)][Gly(cPr)][NMehhhLys(Me)]L[X137]; lactam 3-C)",
    "targetOrSystem": "NCI-H1048 cells",
    "measureUnit": "nM",
    "GI50": 10
  },
  {
    "compound": "CC(C)C[C@@H]1NC(=O)[C@@H](N(C)C(=O)[C@@H](NC(=O)[C@@H]2C[C@@H](F)CN2C(=O)C2(C(F)(F)F)CC(F)(F)C2)C2CC2)CCCCCCCNC(=O)[C@H](Cc2cc(Cl)ccc2C2=CCOCC2)N(C)C1=O [Example 21] ({cBuCO(3,3-F2-1-CF3)}-[Pro(trans-4-F)][Gly(cPr)][NMe(hhhLys)]L[X104]; lactam 3-C)",
    "targetOrSystem": "NCI-H1048 cells",
    "measureUnit": "nM",
    "GI50": 10
  }
]
